B1: SNAP91 (parent)
chain: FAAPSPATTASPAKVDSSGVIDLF

Variants of: B1
Test: protein stability index of a GFP-peptide fusion (GPS, HEK-293T) (PSI 1-6); higher = more stable;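 also: lentivirally expressed fusions sorted by FACS into six bins by GFP to DsRed ratio, PSI derived from sequencing read proportions per bin multiplied by bin number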
Settings: c terminus: a fixed tail appended
test_readout: protein stability index

| mutation_key | test_readout | reported_result |
| --- | --- | --- |
| P4G | protein stability index | 1.95 |
| P12K | protein stability index | 1.96 |
| S5F | protein stability index | 1.97 |
